As shown below, each of these compounds has a reported pKi value.
# assaySystem: Mu-type opioid receptor (Cavia porcellus)
# Sequence (P97266 whole entry): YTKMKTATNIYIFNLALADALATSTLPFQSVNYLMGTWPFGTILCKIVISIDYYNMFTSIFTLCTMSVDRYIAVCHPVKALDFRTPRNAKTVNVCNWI
pKi: −log10 of the molar value.
testReadout: pKi

[[record]]
cpdsmiles = "COC(=O)N1CCN(C(=O)Cc2ccc(Cl)cc2)[C@@H]2[C@@H](N3CC[C@H](O)C3)CCC[C@@H]21"
assaysystem = "Mu-type opioid receptor (Cavia porcellus)"
testreadout = "pKi"
recordedmeasurement = 6.44

[[record]]
cpdsmiles = "COC(=O)N1CCN(C(=O)Cc2ccc(Cl)c(Cl)c2)[C@@H]2[C@@H](N3CC[C@H](O)C3)CCC[C@@H]21"
assaysystem = "Mu-type opioid receptor (Cavia porcellus)"
testreadout = "pKi"
recordedmeasurement = 6.74

[[record]]
cpdsmiles = "COC(=O)N1CCN(C(=O)Cc2ccc(Cl)c(F)c2)[C@@H]2[C@@H](N3CC[C@H](O)C3)CCC[C@@H]21"
assaysystem = "Mu-type opioid receptor (Cavia porcellus)"
testreadout = "pKi"
recordedmeasurement = 6.26

[[record]]
cpdsmiles = "CCOC(=O)CN1CCN(C(=O)Cc2ccc(Cl)c(Cl)c2)[C@@H]2[C@@H](N3CCCC3)CCC[C@@H]21"
assaysystem = "Mu-type opioid receptor (Cavia porcellus)"
testreadout = "pKi"
recordedmeasurement = 6.08

[[record]]
cpdsmiles = "COC(=O)CN1CCN(C(=O)Cc2ccc(Cl)c(Cl)c2)[C@@H]2[C@@H](N3CCCC3)CCC[C@@H]21"
assaysystem = "Mu-type opioid receptor (Cavia porcellus)"
testreadout = "pKi"
recordedmeasurement = 5.91

[[record]]
cpdsmiles = "CS(=O)(=O)N1CCN(C(=O)Cc2ccc(Cl)c(Cl)c2)[C@@H]2[C@@H](N3CC[C@H](O)C3)CCC[C@@H]21"
assaysystem = "Mu-type opioid receptor (Cavia porcellus)"
testreadout = "pKi"
recordedmeasurement = 6.47

[[record]]
cpdsmiles = "COC(=O)N1CCN(C(=O)Cc2ccc(C(F)(F)F)c(Cl)c2)[C@@H]2[C@@H](N3CC[C@H](O)C3)CCC[C@@H]21"
assaysystem = "Mu-type opioid receptor (Cavia porcellus)"
testreadout = "pKi"
recordedmeasurement = 6.21


====

As shown below, each of these compounds has a reported EC50 value.
# assaySystem: Kappa-type opioid receptor (Homo sapiens, UniProt P41145)
# Sequence (P41145 whole entry): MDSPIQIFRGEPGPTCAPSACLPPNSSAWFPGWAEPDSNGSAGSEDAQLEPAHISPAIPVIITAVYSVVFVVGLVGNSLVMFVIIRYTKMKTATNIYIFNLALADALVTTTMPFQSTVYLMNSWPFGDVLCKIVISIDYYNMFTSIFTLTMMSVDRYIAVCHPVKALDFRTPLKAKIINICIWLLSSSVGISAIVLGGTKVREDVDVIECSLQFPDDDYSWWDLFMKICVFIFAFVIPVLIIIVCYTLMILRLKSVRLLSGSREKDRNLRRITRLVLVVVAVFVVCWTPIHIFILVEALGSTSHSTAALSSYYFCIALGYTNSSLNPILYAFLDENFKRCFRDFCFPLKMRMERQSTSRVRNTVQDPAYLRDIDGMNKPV
# assayDetails: Agonist activity at recombinant human kappa-type opioid receptor expressed in HEK293 cells after 30 mins by [35S]GTPgammaS binding assay
testReadout: EC50

[[record]]
cpdsmiles = "CNC(=O)C(=O)N1CCN(C(=O)Cc2ccc(Cl)c(Cl)c2)[C@@H]2[C@@H](N3CCCC3)CCC[C@@H]21"
recordedmeasurement = "8.1 nM"

[[record]]
cpdsmiles = "COC(=O)N1CCN(C(=O)Cc2cccc(Cl)c2)[C@@H]2[C@@H](N3CC[C@H](O)C3)CCC[C@@H]21"
recordedmeasurement = "15 nM"

[[record]]
cpdsmiles = "COC(=O)CN1CCN(C(=O)Cc2ccc(Cl)c(Cl)c2)[C@@H]2[C@@H](N3CCCC3)CCC[C@@H]21"
recordedmeasurement = "1.7 nM"

[[record]]
cpdsmiles = "COC(=O)N1CCN(C(=O)Cc2ccc(C(F)(F)F)c(Cl)c2)[C@@H]2[C@@H](N3CC[C@H](O)C3)CCC[C@@H]21"
recordedmeasurement = "0.3 nM"


====

As shown below, each of these compounds has a reported Activity value.
# assaySystem: Kappa-type opioid receptor (Homo sapiens, UniProt P41145)
# assayDetails: Agonist activity at recombinant human kappa-type opioid receptor expressed in HEK293 cells at 1 uM after 30 mins by [35S]GTPgammaS binding assay
# Assay type: functional, cell-based
testReadout: Activity (%)

[[record]]
cpdsmiles = "CS(=O)(=O)N1CCN(C(=O)Cc2ccc(Cl)c(Cl)c2)[C@@H]2[C@@H](N3CC[C@H](O)C3)CCC[C@@H]21"
recordedmeasurement = 106

[[record]]
cpdsmiles = "CCOC(=O)CN1CCN(C(=O)Cc2ccc(Cl)c(Cl)c2)[C@@H]2[C@@H](N3CCCC3)CCC[C@@H]21"
recordedmeasurement = 106

[[record]]
cpdsmiles = "COC(=O)N1CCN(C(=O)Cc2ccc(C(F)(F)F)c(Cl)c2)[C@@H]2[C@@H](N3CC[C@H](O)C3)CCC[C@@H]21"
recordedmeasurement = 100

[[record]]
cpdsmiles = "CS(=O)(=O)N1CCN(C(=O)Cc2ccc(Cl)c(Cl)c2)[C@@H]2[C@@H](N3CCCC3)CCC[C@@H]21"
recordedmeasurement = 106

[[record]]
cpdsmiles = "COC(=O)N1CCN(C(=O)Cc2ccc(Cl)c(F)c2)[C@@H]2[C@@H](N3CC[C@H](O)C3)CCC[C@@H]21"
recordedmeasurement = 93

[[record]]
cpdsmiles = "COC(=O)N1CCN(C(=O)Cc2ccc(Cl)cc2)[C@@H]2[C@@H](N3CC[C@H](O)C3)CCC[C@@H]21"
recordedmeasurement = 103

[[record]]
cpdsmiles = "COC(=O)CN1CCN(C(=O)Cc2ccc(Cl)c(Cl)c2)[C@@H]2[C@@H](N3CCCC3)CCC[C@@H]21"
recordedmeasurement = 111

[[record]]
cpdsmiles = "CS(=O)(=O)N1CCN(C(=O)Cc2ccc(F)c(Cl)c2)[C@@H]2[C@@H](N3CC[C@H](O)C3)CCC[C@@H]21"
recordedmeasurement = 99

[[record]]
cpdsmiles = "CS(=O)(=O)N1CCN(C(=O)Cc2ccc(Cl)c(F)c2)[C@@H]2[C@@H](N3CC[C@H](O)C3)CCC[C@@H]21"
recordedmeasurement = 105

[[record]]
cpdsmiles = "O=C(Cc1ccc(Cl)c(F)c1)N1CCN(S(=O)(=O)Cc2ccon2)[C@H]2CCC[C@H](N3CC[C@H](O)C3)[C@H]21"
recordedmeasurement = 105

[[record]]
cpdsmiles = "COC(=O)N1CCN(C(=O)Cc2ccc(F)c(Cl)c2)[C@@H]2[C@@H](N3CC[C@H](O)C3)CCC[C@@H]21"
recordedmeasurement = 110

